Hello, the source for this data is paper PMC11328599, in case you need it.

# method_summary: in vitro
# Assay type: cell-based
# condition_parameters: African green monkey, % of cell viability ± SEM
# Protocol: Cell viability assays in the presence of compound 3e were performed in both Vero (BCRJ code 0245) and HepG2 (BCRJ code 0291) cells using MTT (3-[4,5-dimethylthiazol-2-yl]-2,5 diphenyl tetrazolium bromide)[21] and neutral red uptake (NRU)[22] methods. […] The absorbance was measured at 570 nm using microplate reader (EZ Read 400 microplate reader, Biochrom, Cambridge, UK). […] The absorbance was measured at 562 nm using microplate reader (EZ Read 400 microplate reader, Biochrom, Cambridge, UK). […]
readout_type: viability at 72 h, 87.5 µM (%)

> print(dat)
                              line.notation  assay.result
1  Nc1nc2[nH]c(SCC(=O)Nc3cccc4c3CCCC4)nc2c(=O)[nH]1            94

---

Record set of pKi for target or system MtFolB (Mycobacterium tuberculosis).
pKi: −log10 of the molar value.
readout_type: pKi

> print(dat)
                              line.notation  assay.result
1  Nc1nc2[nH]c(SCC(=O)Nc3ccc(N4CCCCC4)cc3)nc2c(=O)[nH]1          6.40
2  Nc1nc2[nH]c(SCC(=O)Nc3ccc(N4CCOCC4)cc3)nc2c(=O)[nH]1          6.52
3  Nc1nc2[nH]c(SCC(=O)Nc3ccc(C(=O)N4CCCC4)cc3)nc2c(=O)[nH]1          6.52
4  Nc1nc2[nH]c(SCC(=O)Nc3ccc4c(c3)CCCC4)nc2c(=O)[nH]1          6.70
5  Nc1nc2[nH]c(SCC(=O)Nc3cccc4c3CCCC4)nc2c(=O)[nH]1          5.85

---

# method_summary: physchem
# Assay type: physicochemical
# condition_parameters: 25 °C, pH 7.4, aqueous buffer, thermodynamic from solid
readout_type: solubility at 4 h (µM)

> print(dat)
                              line.notation  unit.tag  assay.result
1  Nc1nc2[nH]c(SCC(=O)Nc3cccc4c3CCCC4)nc2c(=O)[nH]1        µM           1.1

---

# method_summary: in vitro
# Format: cell-based
# condition_parameters: African green monkey, % of cell viability ± SEM
readout_type: viability at 72 h, 100 µM

> print(dat)
                              line.notation  assay.result
1  Nc1nc2[nH]c(SCC(=O)Nc3cccc4c3CCCC4)nc2c(=O)[nH]1           94%

---

Recorded melting point for the following compounds
readout_type: melting point

> print(dat)
                                   compound          assay.result
1  Nc1nc2[nH]c(SCC(=O)NCC3CCCCC3)nc2c(=O)[nH]1 [Compound 3l]  262 to 263 °C (dec.)
2  CN(C(=O)CSc1nc2c(=O)[nH]c(N)nc2[nH]1)C1CCCCC1 [Compound 3j]  272 to 274 °C (dec.)
3  C[C@@H](NC(=O)CSc1nc2c(=O)[nH]c(N)nc2[nH]1)C1CCCCC1 [Compound 3n]  289 to 291 °C (dec.)
4  Nc1nc2[nH]c(SCC(=O)Nc3ccc(N4CCCCC4)cc3)nc2c(=O)[nH]1 [Compound 3a]  258 to 260 °C (dec.)
5  CC1CCC(NC(=O)CSc2nc3c(=O)[nH]c(N)nc3[nH]2)CC1 (centres unmarked) [Compound 3g]  282 to 284 °C (dec.)
